Listed compounds paired with reported pKd
Biological target: Tyrosine-protein kinase JAK1 (Homo sapiens)
Sequence (P23458 whole entry, the tested form may be a part): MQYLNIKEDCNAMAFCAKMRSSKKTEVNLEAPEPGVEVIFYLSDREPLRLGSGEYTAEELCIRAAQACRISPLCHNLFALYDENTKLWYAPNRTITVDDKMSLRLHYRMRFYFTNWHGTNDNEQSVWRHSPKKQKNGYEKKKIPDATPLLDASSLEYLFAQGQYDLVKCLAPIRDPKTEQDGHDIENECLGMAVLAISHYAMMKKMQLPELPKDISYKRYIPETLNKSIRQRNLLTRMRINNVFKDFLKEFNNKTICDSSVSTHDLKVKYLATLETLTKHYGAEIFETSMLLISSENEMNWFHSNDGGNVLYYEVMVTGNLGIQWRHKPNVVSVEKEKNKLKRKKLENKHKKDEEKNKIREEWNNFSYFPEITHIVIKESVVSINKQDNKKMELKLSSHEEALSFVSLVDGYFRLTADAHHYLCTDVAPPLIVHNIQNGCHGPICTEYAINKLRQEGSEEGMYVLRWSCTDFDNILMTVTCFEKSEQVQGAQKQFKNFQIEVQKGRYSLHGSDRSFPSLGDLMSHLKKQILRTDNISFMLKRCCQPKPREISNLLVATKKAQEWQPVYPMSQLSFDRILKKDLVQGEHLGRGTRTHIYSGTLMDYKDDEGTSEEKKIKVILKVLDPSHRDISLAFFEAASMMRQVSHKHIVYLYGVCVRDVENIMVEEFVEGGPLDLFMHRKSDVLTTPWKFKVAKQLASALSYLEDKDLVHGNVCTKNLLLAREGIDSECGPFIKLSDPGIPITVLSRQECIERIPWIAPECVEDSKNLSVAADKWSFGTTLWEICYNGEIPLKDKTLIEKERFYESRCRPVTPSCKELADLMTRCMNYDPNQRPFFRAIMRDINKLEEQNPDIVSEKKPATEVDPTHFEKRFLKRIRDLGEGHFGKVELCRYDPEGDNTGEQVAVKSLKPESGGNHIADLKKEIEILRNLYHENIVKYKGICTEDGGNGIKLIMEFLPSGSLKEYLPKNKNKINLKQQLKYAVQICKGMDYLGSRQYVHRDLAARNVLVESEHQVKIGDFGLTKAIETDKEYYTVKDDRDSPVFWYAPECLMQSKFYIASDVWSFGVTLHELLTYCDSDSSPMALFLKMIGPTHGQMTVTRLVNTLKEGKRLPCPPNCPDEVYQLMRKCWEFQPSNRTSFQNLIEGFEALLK
Assay: Binding affinity to recombinant human JAK1 kinase domain by fluorescence polarization assay
The meaning of pKd here: minus log10 of the concentration in molar units.

Before answering, review these 5 worked examples.
>>> reported_measurement("O=C(Nc1c[nH]nc1-c1nc2cc(CN3CCOCC3)ccc2[nH]1)NC1CC1")
7.43
>>> reported_measurement("C[C@H](Nc1cc(-c2cnn(C)c2)cc(Nc2cnccn2)n1)c1ccc(F)cc1")
7.80
>>> reported_measurement("CCS(=O)(=O)N1CCN(c2ccc(Nc3ncc(C(N)=O)c(NC4CC4)n3)cc2)CC1")
7.64
>>> reported_measurement("N#CCC1(n2cc(-c3ncnc4[nH]ccc34)cn2)CN(C2CCN(C(=O)c3ccnc(C(F)(F)F)c3F)CC2)C1")
7.29
>>> reported_measurement("C1=C/COCc2cc(ccc2OCCN2CCCC2)Nc2nccc(n2)-c2cccc(c2)COC/1")
6.50

Could you now look at the following compound, please?
Exam item: Bench note: what pKd did `Cc1cc(Nc2cc(CN3CCOCC3)c3nc(C)c(Cc4ccc(Cl)cc4F)n3n2)n[nH]1` show?
Marked response: 8.09

----------
The molecules listed here are annotated with their pKd.
Target: Tyrosine-protein kinase JAK2 (Homo sapiens, UniProt O60674)
Sequence (O60674 whole entry, the tested form may be a part): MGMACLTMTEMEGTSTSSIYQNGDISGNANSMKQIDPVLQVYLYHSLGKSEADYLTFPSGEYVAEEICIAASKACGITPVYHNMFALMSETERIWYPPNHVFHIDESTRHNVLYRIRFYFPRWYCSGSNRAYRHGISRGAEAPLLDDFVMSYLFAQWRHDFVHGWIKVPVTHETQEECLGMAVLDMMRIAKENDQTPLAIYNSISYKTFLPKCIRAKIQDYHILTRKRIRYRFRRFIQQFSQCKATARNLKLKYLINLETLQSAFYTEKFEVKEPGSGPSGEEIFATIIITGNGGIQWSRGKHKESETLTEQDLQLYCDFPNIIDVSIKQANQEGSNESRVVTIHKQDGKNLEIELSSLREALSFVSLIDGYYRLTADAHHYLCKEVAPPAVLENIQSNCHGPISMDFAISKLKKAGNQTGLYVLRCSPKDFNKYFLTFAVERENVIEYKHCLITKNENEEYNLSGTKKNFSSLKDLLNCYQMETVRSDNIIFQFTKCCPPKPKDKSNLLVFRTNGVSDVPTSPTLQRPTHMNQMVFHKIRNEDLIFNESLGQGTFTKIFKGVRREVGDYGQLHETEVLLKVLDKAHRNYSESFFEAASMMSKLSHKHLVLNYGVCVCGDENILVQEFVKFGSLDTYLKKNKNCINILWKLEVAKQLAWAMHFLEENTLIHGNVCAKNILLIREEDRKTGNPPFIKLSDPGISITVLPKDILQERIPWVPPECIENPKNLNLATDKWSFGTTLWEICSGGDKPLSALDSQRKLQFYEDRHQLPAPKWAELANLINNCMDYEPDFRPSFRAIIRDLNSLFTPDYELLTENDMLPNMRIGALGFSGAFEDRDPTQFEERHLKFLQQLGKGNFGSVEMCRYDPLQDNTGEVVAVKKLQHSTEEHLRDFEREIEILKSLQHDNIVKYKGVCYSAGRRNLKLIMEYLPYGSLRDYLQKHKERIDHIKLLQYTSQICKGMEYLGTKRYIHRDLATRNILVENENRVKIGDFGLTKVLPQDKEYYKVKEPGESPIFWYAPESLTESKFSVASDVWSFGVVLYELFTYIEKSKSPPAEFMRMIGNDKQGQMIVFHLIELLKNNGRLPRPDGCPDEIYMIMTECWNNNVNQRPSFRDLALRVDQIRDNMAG
Assay: Binding affinity to recombinant human JAK2 kinase domain (840 to 1132 residues) assessed as dissociation constant by ITC analysis
Convention used: pKd is expressed as -log10 of the molar concentration.

# annotated cases, reported pKd shown
>>> reported_measurement("N#CCC1(n2cc(-c3ncnc4[nH]ccc34)cn2)CN(C2CCN(C(=O)c3ccnc(C(F)(F)F)c3F)CC2)C1")
7.97
>>> reported_measurement("CCS(=O)(=O)N1CCN(c2ccc(Nc3ncc(C(N)=O)c(NC4CC4)n3)cc2)CC1")
8.05

Lab note: next molecule to report on.
Exam item: Given the molecule `C[C@H](Nc1cc(-c2cnn(C)c2)cc(Nc2cnccn2)n1)c1ccc(F)cc1` , what is its reported pKd?
Marked response: 8.40

----------
Target: Tyrosine-protein kinase JAK2 (Homo sapiens, UniProt O60674)
Assay: Inhibition of recombinant human JAK2 assessed as inhibition of substrate phosphorylation measured every 5 mins for 30 mins by LANCE Ultra kinase assay
Reported IC50 values follow for various compounds
Kindly write the number and append the unit.

Example compounds with recorded IC50:
>>> reported_measurement("C[C@H](Nc1cc(-c2cnn(C)c2)cc(Nc2cnccn2)n1)c1ccc(F)cc1")
"0.8 nM"
>>> reported_measurement("Cc1cc(Nc2cc(CN3CCOCC3)c3nc(C)c(Cc4ccc(Cl)cc4F)n3n2)n[nH]1")
"6.2 nM"

Exam item: Quick one: IC50 for `CCS(=O)(=O)N1CCN(c2ccc(Nc3ncc(C(N)=O)c(NC4CC4)n3)cc2)CC1` ?
Marked response: 11 nM

Exam item: Fill in the blank: the reported IC50 of `N#CCC1(n2cc(-c3ncnc4[nH]ccc34)cn2)CN(C2CCN(C(=O)c3ccnc(C(F)(F)F)c3F)CC2)C1` is ____.
Marked response: 54 nM

----------
Target: Tyrosine-protein kinase JAK2 (Homo sapiens)
Settings: dose 30-200 µM
Readings of deltaH for the listed compounds

Below: 4 compounds and their reported deltaH.
>>> reported_measurement("C1=N/C2=N/c3ccc(OCCN4CCCC4)c(c3)COC/C=C/COCc3cccc(c3)C(=C1)N2")
"-31.8 kJ/mol"
>>> reported_measurement("N#CCC1(n2cc(-c3ncnc4[nH]ccc34)cn2)CN(C2CCN(C(=O)c3ccnc(C(F)(F)F)c3F)CC2)C1")
"-22.6 kJ/mol"
>>> reported_measurement("N#CCNC(=O)c1ccc(-c2ccnc(Nc3ccc(N4CCOCC4)cc3)n2)cc1")
"-60.2 kJ/mol"
>>> reported_measurement("CCS(=O)(=O)N1CCN(c2ccc(Nc3ncc(C(N)=O)c(NC4CC4)n3)cc2)CC1")
"-43.5 kJ/mol"

Exam item: I'd like to know its deltaH. The compound in question is `C[C@H](Nc1cc(-c2cnn(C)c2)cc(Nc2cnccn2)n1)c1ccc(F)cc1`
Marked response: -52.3 kJ/mol
